meta.source: ChEMBL document CHEMBL1131901

- System name: Kappa-type opioid receptor (Homo sapiens, UniProt P41145)
- Sequence (P41145 whole entry): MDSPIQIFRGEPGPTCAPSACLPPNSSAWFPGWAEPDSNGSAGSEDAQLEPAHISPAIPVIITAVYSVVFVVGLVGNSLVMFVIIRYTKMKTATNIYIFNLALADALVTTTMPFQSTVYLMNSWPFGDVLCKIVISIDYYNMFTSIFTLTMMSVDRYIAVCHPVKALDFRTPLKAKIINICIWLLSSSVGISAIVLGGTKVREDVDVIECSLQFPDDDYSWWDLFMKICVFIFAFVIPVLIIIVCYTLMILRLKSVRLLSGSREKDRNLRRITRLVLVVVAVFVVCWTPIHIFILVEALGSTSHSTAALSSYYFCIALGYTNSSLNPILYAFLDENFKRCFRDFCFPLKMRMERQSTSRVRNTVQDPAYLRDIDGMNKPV
- Assay text: Agonistic activity against human opioid Kappa receptor transfected into Chinese hamster ovary (CHO) cells using [3H]U-69593 as radioligand
- Assay type: functional, cell-based
Assay endpoint: Stimulation (%)
One number for each entry, in %.

# batch: return Stimulation for each of the 5 compounds below
1. Cc1ncc2c(n1)C1Oc3c(O)ccc4c3C13CCN(C)C(C4)C3(O)C2 (stereo not given)
2. CN1CCC23c4c5ccc(O)c4OC2c2nc(N)ncc2CC3(O)C1C5 (stereo not given)
3. CN1CCC23c4c5ccc(O)c4OC2c2nc(-c4ccccc4)ncc2CC3(O)C1C5 (stereo not given)
4. CN1CCC23c4c5ccc(O)c4OC2c2n[nH]cc2CC3(O)C1C5 (stereo not given)
5. CN1CCC23c4c5ccc(O)c4OC2c2nc(O)ncc2CC3(O)C1C5 (stereo not given)

// result
1: 97; 2: 34.3; 3: 49.5; 4: 18.9; 5: 40.7
